# Target entity: the molecule itself
# Assay overview: AUC
For each record, write down the corresponding Kd.
Answers are plain numbers, in µM.

Reference set (3 entries):
[
  {
    "Protein": "PupR-ASD R53D (domain or fragment, Pseudomonas putida WCS358) GAMGMNGQGATSIPGEVAEQAMHWHLELQEPAVSAATLAACMSWRQAHPLHEHAWQDTQVFAQRLREMRSPGQRPLAHAALRPQQS",
    "Display unit": "µM",
    "Kd": 562
  },
  {
    "Protein": "PupR-ASD M18D (domain or fragment, Pseudomonas putida WCS358) GAMGMNGQGATSIPGEVAEQADHWHLELQEPAVSAATLAACMSWRQAHPLHEHAWQRTQVFAQRLREMRSPGQRPLAHAALRPQQS",
    "Display unit": "µM",
    "Kd": 226
  },
  {
    "Protein": "Pseudomonas putida WCS358 PupR cytoplasmic anti-sigma domain (PupR-ASD), wild type (domain or fragment) GAMGMNGQGATSIPGEVAEQAMHWHLELQEPAVSAATLAACMSWRQAHPLHEHAWQRTQVFAQRLREMRSPGQRPLAHAALRPQQS",
    "Display unit": "µM",
    "Kd": 10.2
  }
]

Please look at the following protein next.
q: Supply measured Kd of PupR-ASD A35D (domain or fragment, Pseudomonas putida WCS358) GAMGMNGQGATSIPGEVAEQAMHWHLELQEPAVSAATLDACMSWRQAHPLHEHAWQRTQVFAQRLREMRSPGQRPLAHAALRPQQS in your reply.
a: 13.5
